These measurements were taken from patent US11174250B2.

target: WDR5 protein (Homo sapiens (Human), UniProt P61964); assay: Surface Plasmon Resonance (SPR) assay; format: binding; settings: SPR, Table 1; read-out: WDR5 binding affinity (KD)
Measure: Kd (nM)
Value expressed in nM; do not type the unit.

If you can, please state the reported Kd value of CN(C)C1CCN(c2ccc(-c3cc(CN4CCOCC4)ccc3F)cc2NC(=O)c2cn(C)c(=O)cc2C(F)(F)F)C1 (stereo not drawn) . 2270

If you can, please state the reported Kd value of "C[C@@H]1CN(c2ccc(-c3cc(C(=O)Nc4ccccc4)ccc3F)cc2NC(=O)c2c[nH]c(=O)cc2C(F)(F)F)C[C@H](C)N1C" . 4

If you can, please state the reported Kd value of CC1CN(c2ccc(-c3cc(C(=O)NC4CCCCC4)ccc3F)cc2NC(=O)c2c[nH]c(=O)cc2C(F)(F)F)CC(C)N1C (stereo not drawn) . 1.7

----------
target: WDR5 protein (Homo sapiens (Human), UniProt P61964); assay: Surface Plasmon Resonance (SPR) assay; format: binding; details: SPR, Table 1; read-out: WDR5 binding affinity (KD)
pKd: −log10 of the molar value.
Rule: pKd under 8 gives rule not met, otherwise rule met.

Please check the record "CN1CCN(c2ccc(-c3cc(OCC4CC4)c(F)cc3F)cc2NC(=O)c2c[nH]c(=O)cc2C(F)(F)F)CC1" and state if its pKd is at or above 8. rule not met

Please check the record "C[C@@H]1CN(c2ccc(-c3ccc(F)c(CN(C)C4COC4)c3F)cc2NC(=O)c2c[nH]c(=O)cc2C(F)(F)F)C[C@H](C)N1C" and state if its pKd is at or above 8. rule not met

Please check the record "CN1CCN(c2ccc(-c3cc(CN4C5COCC4C5)ccc3F)cc2NC(=O)c2c[nH]c(=O)cc2C(F)(F)F)CC1" and state if its pKd is at or above 8. rule met

Please check the record "C[C@@H]1CN(c2ccc(-c3cc(OCC4CC4)ncc3F)cc2NC(=O)c2c[nH]c(=O)cc2C(F)(F)F)C[C@H](C)N1C" and state if its pKd is at or above 8. rule met

----------
Target: MLL1-WRAD2 complex (Homo sapiens (Human))
Test: MLL1-WRAD2 enzyme assay (in vitro methyl transferase assay)
Format: biochemical
Conditions: MLL1-WRAD2 assay; read-out: In vitro MLL1 activity (IC50)
Protocol: Reaction was initiated with 1 μM 3H-SAM and incubated for 1 hour at 30° C. Reaction mixture was transferred to P81 filter-paper and washed with PBS before detection.
Measure: pIC50
Lab note — pIC50 values are minus log10 of concentrations in M.

If you can, please state the reported pIC50 value of "CN1CCN(c2ccc(-c3cc(CN4CCOCC4)ccc3F)cc2NC(=O)c2c[nH]c(=O)cc2C(F)(F)F)CC1" . 6.03

If you can, please state the reported pIC50 value of "C[C@@H]1CN(c2ccc(-c3cc(OCC4CC4)ncc3F)cc2NC(=O)c2c[nH]c(=O)cc2C(F)(F)F)C[C@H](C)N1C" . 5.75

If you can, please state the reported pIC50 value of "CN1CCN(c2ccc(-c3cc(CN4CCOCC4)ccc3F)cc2NC(=O)c2cn(C)c(=O)cc2C(F)(F)F)CC1" . 5.05

If you can, please state the reported pIC50 value of "CN1CCN(c2ccc(-c3cc(CN(C)[C@H]4CCOC4)ccc3F)cc2NC(=O)c2c[nH]c(=O)cc2C(F)(F)F)CC1" . 5.72

If you can, please state the reported pIC50 value of "Cc1cc(=O)[nH]cc1C(=O)Nc1cc(-c2cc(CN3CCOCC3)ccc2F)ccc1N1CCN(C)CC1" . 4.57

If you can, please state the reported pIC50 value of "C[C@@H]1CN(c2ccc(-c3cc(C(=O)NC4CC4)ccc3F)cc2NC(=O)c2c[nH]c(=O)cc2C(F)(F)F)C[C@H](C)N1C" . 6.71

----------
Could you please report measured residence time for the items listed next?
target: UniProt:P61964; experiment: Surface Plasmon Resonance (SPR) assay; assay type: binding; conditions: SPR, τ=1/koff; read-out: Residence Time (t, min)
Value expressed in min; do not type the unit.

If you can, please state the reported residence time value of "CN1CCN(c2ccc(-c3cc(OCC4CC4)c(F)cc3F)cc2NC(=O)c2c[nH]c(=O)cc2C(F)(F)F)CC1" . 1.75

If you can, please state the reported residence time value of "C[C@@H]1CN(c2ccc(-c3cc(C(=O)NC4CC4)ccc3F)cc2NC(=O)c2c[nH]c(=O)cc2C(F)(F)F)C[C@H](C)N1C" . 9.6

If you can, please state the reported residence time value of "C[C@@H]1CN(c2ccc(-c3cc(C(=O)Nc4ccccc4)ccc3F)cc2NC(=O)c2c[nH]c(=O)cc2C(F)(F)F)C[C@H](C)N1C" . 2.18

If you can, please state the reported residence time value of "CN1CCN(c2ccc(-c3cc(CN(C)C4COC4)ccc3F)cc2NC(=O)c2c[nH]c(=O)cc2C(F)(F)F)CC1" . 3.64

----------
Could you please report measured Kd for the items listed next?
molecular target: WDR5 protein (Homo sapiens (Human), UniProt P61964); test: Surface Plasmon Resonance (SPR) assay; format: binding; details: SPR, Table 1; read-out: WDR5 binding affinity (KD)
Value expressed in nM; do not type the unit.

If you can, please state the reported Kd value of CN1CCN(c2ccc(-c3cc(OCC4CC4)ncc3F)cc2NC(=O)c2c[nH]c(=O)cc2C(F)(F)F)CC1 [Example 15] . 9

If you can, please state the reported Kd value of C[C@@H]1CN(c2ccc(-c3cc(C(=O)NC(C)(C)CC(C)(C)C)c(F)cc3F)cc2NC(=O)c2c[nH]c(=O)cc2C(F)(F)F)C[C@H](C)N1C [Example 120] . 6

If you can, please state the reported Kd value of C[C@@H]1CN(c2ccc(-c3cc(CNC4CCCCC4)ccc3F)cc2NC(=O)c2c[nH]c(=O)cc2C(F)(F)F)C[C@H](C)N1C [Example 45] . 2

If you can, please state the reported Kd value of CN1CCN(c2ccc(-c3cc(CN4CCOCC4)ccc3Cl)cc2NC(=O)c2c[nH]c(=O)cc2C(F)(F)F)CC1 [Example 86] . 35

If you can, please state the reported Kd value of C[C@@H]1CN(c2ccc(-c3ccc(F)c(CNC4CCCCC4)c3F)cc2NC(=O)c2c[nH]c(=O)cc2C(F)(F)F)C[C@H](C)N1C [Example 83] . 10

If you can, please state the reported Kd value of C[C@@H]1CN(c2ccc(-c3cc(C(N)=O)c(F)cc3F)cc2NC(=O)c2c[nH]c(=O)cc2C(F)(F)F)C[C@H](C)N1C [Example 121] . 9.2

If you can, please state the reported Kd value of CN1CCN(c2ccc(-c3cc(C(=O)N(C)C4CCCCC4)ccc3F)cc2NC(=O)c2c[nH]c(=O)cc2C(F)(F)F)CC1 [Example 110] . 4.2

If you can, please state the reported Kd value of Cc1cc(C(=O)Nc2cc(-c3cc(CN4CCOCC4)ccc3F)ccc2N2CCN(C)CC2)cc(C)c1F [Example 11] . 6

If you can, please state the reported Kd value of C[C@@H]1CN(c2ccc(-c3ccc(C(N)=O)cc3F)cc2NC(=O)c2c[nH]c(=O)cc2C(F)(F)F)C[C@H](C)N1C [Example 117] . 1.7

If you can, please state the reported Kd value of CN1CCN(c2ccc(-c3cc(CN4CCOCC4)cnc3F)cc2NC(=O)c2c[nH]c(=O)cc2C(F)(F)F)CC1 [Example 61] . 7

If you can, please state the reported Kd value of CN1CC2CN(c3ccc(-c4cc(CN5CCOCC5)ccc4F)cc3NC(=O)c3c[nH]c(=O)cc3C(F)(F)F)CC2C1 (centres unmarked) [Example 100] . 5930

If you can, please state the reported Kd value of Cc1cccc(C(=O)Nc2cc(-c3cc(CN4CCOCC4)ccc3F)ccc2N2CCN(C)CC2)c1 [Example 24] . 5030

If you can, please state the reported Kd value of CN1CCCN(c2ccc(-c3cc(CN4CCOCC4)ccc3F)cc2NC(=O)c2c[nH]c(=O)cc2C(F)(F)F)CC1 [Example 88] . 18

----------
target: WDR5 protein (Homo sapiens (Human)); experiment: Surface Plasmon Resonance (SPR) assay; type: binding; settings: SPR, Table 1; read-out: WDR5 binding affinity (KD)
Measure: pKd
Lab note — pKd values are minus log10 of concentrations in M.

Quick check: pKd on WDR5 protein (Homo sapiens (Human)), item "C[C@@H]1CN(c2ccc(-c3ccc(OCC4CC4)nc3F)cc2NC(=O)c2c[nH]c(=O)cc2C(F)(F)F)C[C@H](C)N1C" ? 9.15

Quick check: pKd on WDR5 protein (Homo sapiens (Human)), item "C[C@@H]1CN(c2ccc(-c3cc(C(=O)NC4CC4)ccc3F)cc2NC(=O)c2c[nH]c(=O)cc2C(F)(F)F)C[C@H](C)N1C" ? 8.51

Quick check: pKd on WDR5 protein (Homo sapiens (Human)), item "CN1CCN(c2ccc(-c3ccc(CN4CCOCC4)cc3F)cc2NC(=O)c2c[nH]c(=O)cc2C(F)(F)F)CC1" ? 8.10

Quick check: pKd on WDR5 protein (Homo sapiens (Human)), item "CN1CCN(c2ccc(-c3cc(CN4CCC(N5CCOCC5)CC4)ccc3F)cc2NC(=O)c2c[nH]c(=O)cc2C(F)(F)F)CC1" ? 8.36

Quick check: pKd on WDR5 protein (Homo sapiens (Human)), item "CN1CCN(c2ncc(-c3cc(CN4CCOCC4)ccc3F)cc2NC(=O)c2c[nH]c(=O)cc2C(F)(F)F)CC1" ? 7.66
